# system.name: UniProt:P34969
# Sequence (P34969 whole entry): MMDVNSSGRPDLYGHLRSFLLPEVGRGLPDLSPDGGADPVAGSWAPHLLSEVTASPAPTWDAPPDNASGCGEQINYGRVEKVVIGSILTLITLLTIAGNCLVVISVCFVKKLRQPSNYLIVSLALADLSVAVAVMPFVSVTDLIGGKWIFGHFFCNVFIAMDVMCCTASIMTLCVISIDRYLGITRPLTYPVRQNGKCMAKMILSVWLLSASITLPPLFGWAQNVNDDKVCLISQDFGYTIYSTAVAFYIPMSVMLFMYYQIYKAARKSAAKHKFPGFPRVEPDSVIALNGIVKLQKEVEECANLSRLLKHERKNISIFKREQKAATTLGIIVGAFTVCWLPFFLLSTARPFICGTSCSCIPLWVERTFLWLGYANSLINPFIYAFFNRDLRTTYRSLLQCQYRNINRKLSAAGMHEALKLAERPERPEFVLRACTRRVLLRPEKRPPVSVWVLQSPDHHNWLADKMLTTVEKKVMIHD
# experimental.details: Binding affinity to 5HT7 receptor (unknown origin)
measure.name: Ki (nM)
Report as a plain number; the unit nM is understood.

GET /values?readout=Ki&item= COc1ccccc1N1CCN(Cc2ccn(-c3ccccc3C)c2)CC1
21

###

For 5-hydroxytryptamine receptor 1A (Rattus norvegicus, UniProt P19327), measured Ki is reported for the entries below.
Your reply should be a number followed by the unit it is expressed in.

The cases that follow already have their Ki on record.
{"line.notation": "CN(C)CCc1cn(-c2cccc3ccccc23)c2ccccc12", "Ki": "0.144 µM"}
{"line.notation": "Cc1cccc(-n2cc(CCN(C)C)c3ccccc32)c1C", "Ki": "0.076 µM"}
{"line.notation": "N#Cc1ccccc1-n1cc(CN2CCN(c3ccccc3)CC2)c2ccccc21", "Ki": "0.036 µM"}
{"line.notation": "c1ccc(-c2ccc(-n3cc(CN4CCN(c5ccccc5)CC4)c4ccccc43)cc2)cc1", "Ki": "49 µM"}
{"line.notation": "CN(C)CCc1cn(-c2ccccc2)c2ccccc12", "Ki": "0.062 µM"}

Consider now this further molecule.
GET /values?readout=Ki&item= c1ccc(N2CCN(Cc3cn(-c4ccccc4)c4ccccc34)CC2)cc1
0.216 µM
